- Protocol Details: Drug distribution in tumor of CB17:SCID mouse xenografted with human VCaP cells at 20 mg/kg, po measured at 1 hrs by LCMS analysis
- Type: ADME, organism-based, Neoplasm
- Protocol Conditions: read-out: Drug uptake
Result Type: concentration at 1 h

Recorded concentration at 1 h of CN(c1ccc(C#N)c(Cl)c1)[C@H]1CC[C@H](NC(=O)c2ccc(N3CCN(C4CN(c5ccc6c(c5)C(=O)N(C5CCC(=O)NC5=O)C6=O)C4)CC3)cc2)CC1 (stereo partly specified) , please.
47 ng/g

###

- Protocol Details: Drug distribution in CB17:SCID mouse xenografted with human VCaP cells assessed as kidney to plasma ratio at 20 mg/kg, po measured at 1 hrs by LCMS analysis
- Format: ADME, organism-based
Result Type: Kp at 1 h

# Kp at 1 h lookup, item CN(c1ccc(C#N)c(Cl)c1)[C@H]1CC[C@H](NC(=O)c2ccc(N3CCN(C4CN(c5ccc6c(c5)C(=O)N(C5CCC(=O)NC5=O)C6=O)C4)CC3)cc2)CC1 (stereo partly specified)
6.2
